Assay: solvent given as SMILES
Settings: in ClC(Cl)Cl
Recorded absorption maximum for the following compounds
# number only, unit nm dropped from output

compound="COC(=O)C(Cc1ccc2oc(-c3ccc(N(C)C)cc3)nc2c1)NC(=O)OC(C)(C)C (centres undefined)" measured_quantity="absorption maximum" readout_units=nm result_value=344.6
compound=CC(C)(C)c1ccc(-c2ccc(-c3c4c(nc5ccccc35)-c3cc5c(cc3CC4)-c3nc4ccccc4c(-c4ccc(-c6ccc(C(C)(C)C)cc6)cc4)c3CC5)cc2)cc1 measured_quantity="absorption maximum" readout_units=nm result_value=376
compound=COc1ccc(-c2cc3c(o2)=CC2=C(C(F)(F)F)c4cc5oc(-c6ccc(OC)cc6)cc5n4[B-](F)(F)[N+]=32)cc1 measured_quantity="absorption maximum" readout_units=nm result_value=723
compound=CCN(CC)c1ccc2cc(-c3cn4cc5ccccc5cc4n3)c(=O)oc2c1 measured_quantity="absorption maximum" readout_units=nm result_value=434
compound=CN(C)c1ccc2nc(-c3ccccc3)sc2c1 measured_quantity="absorption maximum" readout_units=nm result_value=362

q: Query absorption maximum for `Cc1cc(C2=Cc3cccc[n+]3[B-](F)(F)O2)ccc1N(C)C`
a: 400

q: Give reported absorption maximum value for `CC1=CC(C)=[N+]2C1=C(c1ccc(I)cc1)c1c(C)cc(C)n1[B-]2(Oc1ccc([N+](=O)[O-])cc1)Oc1ccc([N+](=O)[O-])cc1`
a: 505

q: Annotate the compound `Cc1nc2c(ccc3c2sc(/C=C/c2ccc(N4CCN(C)CC4)cc2)[n+]3C)s1` with its measured absorption maximum.
a: 545

q: Look up and state reported absorption maximum for `C#CCn1c2ccccc2c2cc(/C=C/c3cc(C)c4n3[B-](F)(F)[N+]3=C(C)C=C(C)C3=C4c3ccc(I)cc3)ccc21`
a: 588

q: Supply absorption maximum value. Item: CC(=O)Nc1ccccc1C(=O)OC1CC(C)CCC1C(C)C (centres undefined)
a: 312

q: Tell me its absorption maximum given `N#C/C(=C\c1cn(-c2ccccc2)nc1-c1ccc([N+](=O)[O-])cc1)c1nc2ccccc2s1` as the entry.
a: 382

q: Provide measured absorption maximum value, entry: `N#Cc1nnn(-c2ccnc3cc(Cl)ccc23)c1N`
a: 385

---

Here the recorded absorption maximum is given for each entry.
Assay: solvent given as SMILES
Details: in ClC(Cl)Cl
Quick note: give the figure in nm, leave out the unit.

Use these answered entries as a reference point.
compound=CCCCc1c2c(nc3ccccc13)-c1cc3c(cc1CC2)-c1nc2ccccc2c(CCCC)c1CC3 measured_quantity="absorption maximum" readout_units=nm result_value=372
compound=F[B-]1(F)OC(c2cccc(Br)c2)=Cc2ccc3ccccc3[n+]21 measured_quantity="absorption maximum" readout_units=nm result_value=426

q: Given the compound `c1ccc(-c2nc(-c3ccc(N4CCCC4)cc3)cc(-c3ccc4ccccc4c3)n2)cc1` , write its reported absorption maximum.
a: 430

q: Dear colleague, please send me the reported absorption maximum for `CC(C)(C)c1ccc2oc3nc4oc5ccc(-n6c7ccccc7c(=O)c7ccccc76)cc5c4cc3c2c1` when you can.
a: 396

q: For the compound `COc1cccc2cc(-c3ccc([N+](=O)[O-])cc3)c(=N)oc12` , give its measured absorption maximum value.
a: 332

q: Output measured absorption maximum for this item: `c1ccc(-c2ncc3ccccn23)cc1`
a: 317

q: Give absorption maximum for `CCN(CC)c1ccc2cc3c([o+]c2c1)/C(=C/Nc1ccccc1)CCC3`
a: 616

q: Please supply the value of reported absorption maximum for the item `CCN1C(=CC2=C([O-])C(=Cc3sc4ccccc4[n+]3CC)C2=O)Sc2ccccc21`
a: 669

q: Determine from records and report absorption maximum for `CCCCCCCCC1(CCCCCCCC)c2cc(C#Cc3ccc(N(c4ccccc4)c4ccccc4)cc3)ccc2-c2ccc(C=O)cc21`
a: 386

q: # return recorded absorption maximum for input `O=c1oc2ccccc2cc1-c1cccc(-c2cc3ccccc3oc2=O)c1`
a: 330

q: Please indicate absorption maximum recorded for `COc1cc(C)c2c(c1C)OC(=O)c1c(C)c(Cl)c(O)c(Cl)c1O2`
a: 342

q: Output absorption maximum of `O=Cc1ccc(C#CC(C#Cc2ccc(C=O)o2)=Cc2ccc(C=C(C#Cc3ccc(C=O)o3)C#Cc3ccc(C=O)o3)s2)o1`
a: 516

q: Answer with reported absorption maximum of `COc1cc2c(cc1/C=C(\C#N)c1nc3ccccc3s1)c1ccccc1n2C`
a: 434

q: Supply measured absorption maximum of `COc1ccc(-c2oc3cccc4c5c(-c6ccc(OC)cc6)/c(=N/S(=O)(=O)C(F)(F)F)oc6cccc(c2c34)c65)cc1` in your reply.
a: 480

q: Look up absorption maximum of `CC1=CC(C)=[N+]2C1=C(c1ccc(I)cc1)c1c(C)cc(C)n1[B-]21Oc2ccc3ccccc3c2-c2c(ccc3ccccc23)O1` and report it.
a: 506

q: Quickly give me recorded absorption maximum for `CCCCCCCCN1c2ccc(C#Cc3ccc(C(F)(F)F)cc3)cc2Sc2cc(C=O)ccc21`
a: 389.99

q: Determine from records and report absorption maximum for COc1ccc2c(c1)O[B-]13Oc4cc(OC)ccc4-c4cc(-c5ccccc5)c(n41)N=C1C(c4ccccc4)=CC2=[N+]13 (stereo not drawn)
a: 765

q: Fill in reported absorption maximum for this entry: `F[B-]1(F)n2cccc2C(c2ccccc2)=C2C=CC(c3cccc(OC4=[N+]5C(=C(c6ccccc6)c6cc(Br)c(-c7ccc[nH]7)n6[B-]5(F)F)C=C4Br)c3)=[N+]21`
a: 627
